molecular target: cGMP-specific 3',5'-cyclic phosphodiesterase (Homo sapiens)

>  <smiles-entry>
CCCCOc1ncc(C(C)=O)cc1-c1nc2c(CC)n(C3CN(CC)C3)nc2c(=O)[nH]1

>  <IC50, nM>
5.5

$$$$

---

test: Solubility at pH 7.3; format: physicochemical; details: buffer

>  <smiles-entry>
CCCCOc1ncc(C(C)=O)cc1-c1nc2c(CC)n(CCN3CCOCC3)nc2c(=O)[nH]1

>  <solubility>
< 10 µg/mL

$$$$
>  <smiles-entry>
CCCOc1ncc(C(C)=O)cc1-c1nc2c(CC)n(C3CN(C(C)C)C3)nc2c(=O)[nH]1

>  <solubility>
170 µg/mL

$$$$

---

Recorded half-life for the following compounds
test: Half life in dog at 0.5 mg/kg; assay type: ADME, organism-based, Canis lupus familiaris; set-up: dose 0.5 mg/kg; conditions: in vivo

>  <smiles-entry>
CCCCOc1ncc(C(C)=O)cc1-c1nc2c(CC)n(C3CN(CC)C3)nc2c(=O)[nH]1

>  <half-life>
540 min

$$$$
>  <smiles-entry>
CCCCOc1ncc(C(C)=O)cc1-c1nc2c(CC)n(C3CCN(CC)CC3)nc2c(=O)[nH]1

>  <half-life>
402 min

$$$$
>  <smiles-entry>
CCCOc1ncc(C(C)=O)cc1-c1nc2c(CC)n(C3CN(C(C)C)C3)nc2c(=O)[nH]1

>  <half-life>
432 min

$$$$

---

Recorded fraction unbound for the following compounds
assay: Plasma protein binding in dog at 0.5 mg/kg; type: ADME, organism-based, Canis lupus familiaris; design: dose 0.5 mg/kg; settings: read-out: PPB (converted)

>  <smiles-entry>
CCCCOc1ncc(C(C)=O)cc1-c1nc2c(CC)n(C3CCN(CC)CC3)nc2c(=O)[nH]1

>  <fraction unbound>
0.4

$$$$
>  <smiles-entry>
CCCCOc1ncc(C(C)=O)cc1-c1nc2c(CC)n(C3CN(CC)C3)nc2c(=O)[nH]1

>  <fraction unbound>
0.38

$$$$
>  <smiles-entry>
CCCOc1ncc(C(C)=O)cc1-c1nc2c(CC)n(C3CN(C(C)C)C3)nc2c(=O)[nH]1

>  <fraction unbound>
0.34

$$$$

---

Recorded IC50 for the following molecules
target: UniProt:O76074
property-measured: IC50 (nM)

>  <smiles-entry>
CCCCOc1ncc(C(C)=O)cc1-c1nc2c(CC)n(CCN3CCOCC3)nc2c(=O)[nH]1

>  <unit-info>
nM

>  <val>
2.6

$$$$
>  <smiles-entry>
CCc1c2nc(-c3cc(C(C)=O)cnc3OCC(C)C)[nH]c(=O)c2nn1C1CN(C)C1

>  <unit-info>
nM

>  <val>
8.2

$$$$
>  <smiles-entry>
CCCOc1ncc(C(C)=O)cc1-c1nc2c(CC)n(C3CN(C)C3)nc2c(=O)[nH]1

>  <unit-info>
nM

>  <val>
9.5

$$$$
>  <smiles-entry>
CCCOc1ncc(C(C)=O)cc1-c1nc2c(CC)n(C3CNC3)nc2c(=O)[nH]1

>  <unit-info>
nM

>  <val>
34

$$$$

---

assay: Selectivity for human PDE5 over canine retinal PDE6
Recorded Selectivity ratio for the following molecules

>  <smiles-entry>
CCCOc1ncc(C(C)=O)cc1-c1nc(=O)c2nn(C3CNC3)c(CCC)c2[nH]1

>  <Selectivity ratio>
26

$$$$
>  <smiles-entry>
CCc1c2nc(-c3cc(C(C)=O)cnc3OCCOC)nc(O)c2nn1CCN1CCOCC1

>  <Selectivity ratio>
58

$$$$
>  <smiles-entry>
CCCOc1ncc(C(C)=O)cc1-c1nc(=O)c2nn(C3CNC3)c(CC)c2[nH]1

>  <Selectivity ratio>
55

$$$$
>  <smiles-entry>
CCCOc1ncc(C(C)=O)cc1-c1nc(O)c2nn(C3CN(CC)C3)c(CC)c2n1

>  <Selectivity ratio>
61

$$$$
>  <smiles-entry>
CCCOc1ncc(C(C)=O)cc1-c1nc(O)c2nn(Cc3nccn3C)c(CC)c2n1

>  <Selectivity ratio>
58

$$$$
>  <smiles-entry>
CCCCOc1ncc(C(C)=O)cc1-c1nc(O)c2nn(Cc3nccn3C)c(CC)c2n1

>  <Selectivity ratio>
142

$$$$
>  <smiles-entry>
CCCOc1ncc(C(C)=O)cc1-c1nc(O)c2nn(C3CN(C)C3)c(CCC)c2n1

>  <Selectivity ratio>
30

$$$$
>  <smiles-entry>
CCCOc1ncc(C(C)=O)cc1-c1nc(O)c2nn(C3CCNCC3)c(CC)c2n1

>  <Selectivity ratio>
53

$$$$
>  <smiles-entry>
CCCCOc1ncc(C(C)=O)cc1-c1nc(O)c2nn(C3CN(CC)C3)c(CC)c2n1

>  <Selectivity ratio>
153

$$$$
>  <smiles-entry>
CCCOc1ncc(C(C)=O)cc1-c1nc(O)c2nn(C3CN(C)C3)c(CC)c2n1

>  <Selectivity ratio>
69

$$$$
>  <smiles-entry>
CCCOc1ncc(C(C)=O)cc1-c1nc(O)c2nn(C3CCN(CC)CC3)c(CC)c2n1

>  <Selectivity ratio>
18

$$$$
>  <smiles-entry>
CCCOc1ncc(C(C)=O)cc1-c1nc(O)c2nn(C3CCN(C)CC3)c(CC)c2n1

>  <Selectivity ratio>
37

$$$$
>  <smiles-entry>
CCCOc1ncc(C(C)=O)cc1-c1nc(O)c2nn(C3CN(C(C)C)C3)c(CC)c2n1

>  <Selectivity ratio>
60

$$$$
>  <smiles-entry>
CCc1c2nc(-c3cc(C(C)=O)cnc3OCC(C)C)nc(O)c2nn1C1CN(C)C1

>  <Selectivity ratio>
84

$$$$
>  <smiles-entry>
CCCCOc1ncc(C(C)=O)cc1-c1nc(O)c2nn(C3CNC3)c(CC)c2n1

>  <Selectivity ratio>
29

$$$$
>  <smiles-entry>
CCCCOc1ncc(C(C)=O)cc1-c1nc(O)c2nn(C3CCN(CC)CC3)c(CC)c2n1

>  <Selectivity ratio>
350

$$$$
>  <smiles-entry>
CCCCOc1ncc(C(C)=O)cc1-c1nc(O)c2nn(C3CCN(C)CC3)c(CC)c2n1

>  <Selectivity ratio>
77

$$$$
>  <smiles-entry>
CCCCOc1ncc(C(C)=O)cc1-c1nc(O)c2nn(C3CN(C)C3)c(CC)c2n1

>  <Selectivity ratio>
43

$$$$
>  <smiles-entry>
CCCCOc1ncc(C(C)=O)cc1-c1nc(O)c2nn(C3CCNCC3)c(CC)c2n1

>  <Selectivity ratio>
57

$$$$

---

Recorded logD for the following compounds
assay: Distribution coefficient, logD of the compound; assay type: physicochemical; conditions: octanol/water
property-measured: logD

>  <smiles-entry>
CCCOc1ncc(C(C)=O)cc1-c1nc2c(CC)n(C3CN(C)C3)nc2c(=O)[nH]1

>  <property-measured>
logD

>  <val>
1.2

$$$$
>  <smiles-entry>
CCCOc1ncc(C(C)=O)cc1-c1nc2c(CC)n(C3CNC3)nc2c(=O)[nH]1

>  <property-measured>
logD

>  <val>
0.3

$$$$
>  <smiles-entry>
CCCOc1ncc(C(C)=O)cc1-c1nc(=O)c2nn(C3CNC3)c(CCC)c2[nH]1

>  <property-measured>
logD

>  <val>
0.6

$$$$
>  <smiles-entry>
CCCOc1ncc(C(C)=O)cc1-c1nc(O)c2nn(C3CN(C)C3)c(CCC)c2n1

>  <property-measured>
logD

>  <val>
1.5

$$$$

---

assay: Solubility at pH 7.4; format: physicochemical; conditions: buffer

>  <smiles-entry>
CCCCOc1ncc(C(C)=O)cc1-c1nc2c(CC)n(C3CN(CC)C3)nc2c(=O)[nH]1

>  <unit-info>
µg/mL

>  <solubility>
390

$$$$

---

test: physchem; details: octanol/water, pH 7.4

>  <smiles-entry>
CCCCOc1ncc(C(C)=O)cc1-c1nc2c(CC)n(C3CN(CC)C3)nc2c(=O)[nH]1

>  <logD>
2.8

$$$$
>  <smiles-entry>
CCCCOc1ncc(C(C)=O)cc1-c1nc(O)c2nn(Cc3nccn3C)c(CC)c2n1

>  <logD>
2.6

$$$$
>  <smiles-entry>
CCCOc1ncc(C(C)=O)cc1-c1nc2c(CC)n(C3CN(C(C)C)C3)nc2c(=O)[nH]1

>  <logD>
2.5

$$$$
>  <smiles-entry>
CCCCOc1ncc(C(C)=O)cc1-c1nc2c(CC)n(C3CCN(CC)CC3)nc2c(=O)[nH]1

>  <logD>
1.8

$$$$

---

assay: Oral bioavailability in human; type: ADME, organism-based; conditions: in vivo

>  <smiles-entry>
CCc1c2nc(-c3cc(S(=O)(=O)N4CCN(CC)CC4)cnc3OCCOC)[nH]c(=O)c2nn1Cc1ccccn1

>  <unit-info>
%

>  <bioavailability>
45

$$$$

---

test: Tmax in dog at 0.5 mg/kg; assay type: ADME, organism-based, Canis lupus familiaris; set-up: dose 0.5 mg/kg; details: in vivo
property-measured: Tmax (h)

>  <smiles-entry>
CCCCOc1ncc(C(C)=O)cc1-c1nc2c(CC)n(C3CN(CC)C3)nc2c(=O)[nH]1

>  <val>
1.4

$$$$
>  <smiles-entry>
CCCOc1ncc(C(C)=O)cc1-c1nc2c(CC)n(C3CN(C(C)C)C3)nc2c(=O)[nH]1

>  <val>
1.9

$$$$
